- study target: Cytochrome P450 3A4 (Homo sapiens); also: in other assays of this panel Not Active means under 50% inhibition at 10 µM
- Sequence (P08684 whole entry): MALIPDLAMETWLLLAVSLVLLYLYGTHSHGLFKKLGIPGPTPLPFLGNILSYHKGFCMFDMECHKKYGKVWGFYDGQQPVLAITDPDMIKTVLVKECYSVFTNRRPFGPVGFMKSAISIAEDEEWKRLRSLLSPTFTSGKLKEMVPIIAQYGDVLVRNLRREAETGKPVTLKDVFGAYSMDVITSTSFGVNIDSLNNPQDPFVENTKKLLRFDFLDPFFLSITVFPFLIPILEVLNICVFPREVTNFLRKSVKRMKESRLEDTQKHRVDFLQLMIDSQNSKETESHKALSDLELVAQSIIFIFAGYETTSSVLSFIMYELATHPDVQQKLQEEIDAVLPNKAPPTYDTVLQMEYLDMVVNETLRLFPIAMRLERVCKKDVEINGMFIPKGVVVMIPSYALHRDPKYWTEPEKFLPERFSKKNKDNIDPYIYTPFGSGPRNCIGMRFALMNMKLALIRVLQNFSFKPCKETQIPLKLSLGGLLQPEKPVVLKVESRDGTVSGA
- measurement setup: bti-tn-5b1-4
assay readout: Ki

compound	Ki
COC(=O)CCc1ccc(OCC(O)CNC(C)C)cc1 (stereo unspecified)	Not Active
C#CC1(O)CC[C@H]2[C@@H]3CCC4=CC(=O)CC[C@@H]4[C@H]3CC[C@@]21CC (stereo partly specified)	Not Active
CC(C)(C)NC(=O)[C@H]1CC[C@H]2[C@@H]3CC[C@H]4NC(=O)C=C[C@]4(C)[C@H]3CC[C@]12C [FINASTERIDE]	Not Active
O=C(O)CCNC(=O)c1ccccc1	Not Active
Clc1ccccc1CN1CCc2sccc2C1	Not Active
N#Cc1ccc(C(c2ccc(C#N)cc2)n2cncn2)cc1	Not Active

// each listed compound needs a value for Ki
1. O=C1O[C@H]([C@@H](O)CO)C(O)=C1O
2. O=c1cnn([C@@H]2O[C@H](CO)[C@@H](O)[C@H]2O)c(=O)[nH]1
3. Oc1cccc(O)c1O
4. NC(=O)C[S+]([O-])C(c1ccccc1)c1ccccc1 (stereo unspecified)

OUTPUT:
Not Active
Not Active
Not Active
Not Active

INPUT: Suppose we examine the compound CC(C)Oc1ccc2c(=O)c(-c3ccccc3)coc2c1 ; what Ki value has been reported?
OUTPUT: Not Active

* * *

- study target: Angiotensin-converting enzyme (Oryctolagus cuniculus, UniProt P12822);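 also: enzymatic inhibition of angiotensin-converting enzyme measured with FAPGG as the substrate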; also: in other assays of this panel Not Active means under 50% inhibition at 10 µM
- Sequence (P12822 whole entry): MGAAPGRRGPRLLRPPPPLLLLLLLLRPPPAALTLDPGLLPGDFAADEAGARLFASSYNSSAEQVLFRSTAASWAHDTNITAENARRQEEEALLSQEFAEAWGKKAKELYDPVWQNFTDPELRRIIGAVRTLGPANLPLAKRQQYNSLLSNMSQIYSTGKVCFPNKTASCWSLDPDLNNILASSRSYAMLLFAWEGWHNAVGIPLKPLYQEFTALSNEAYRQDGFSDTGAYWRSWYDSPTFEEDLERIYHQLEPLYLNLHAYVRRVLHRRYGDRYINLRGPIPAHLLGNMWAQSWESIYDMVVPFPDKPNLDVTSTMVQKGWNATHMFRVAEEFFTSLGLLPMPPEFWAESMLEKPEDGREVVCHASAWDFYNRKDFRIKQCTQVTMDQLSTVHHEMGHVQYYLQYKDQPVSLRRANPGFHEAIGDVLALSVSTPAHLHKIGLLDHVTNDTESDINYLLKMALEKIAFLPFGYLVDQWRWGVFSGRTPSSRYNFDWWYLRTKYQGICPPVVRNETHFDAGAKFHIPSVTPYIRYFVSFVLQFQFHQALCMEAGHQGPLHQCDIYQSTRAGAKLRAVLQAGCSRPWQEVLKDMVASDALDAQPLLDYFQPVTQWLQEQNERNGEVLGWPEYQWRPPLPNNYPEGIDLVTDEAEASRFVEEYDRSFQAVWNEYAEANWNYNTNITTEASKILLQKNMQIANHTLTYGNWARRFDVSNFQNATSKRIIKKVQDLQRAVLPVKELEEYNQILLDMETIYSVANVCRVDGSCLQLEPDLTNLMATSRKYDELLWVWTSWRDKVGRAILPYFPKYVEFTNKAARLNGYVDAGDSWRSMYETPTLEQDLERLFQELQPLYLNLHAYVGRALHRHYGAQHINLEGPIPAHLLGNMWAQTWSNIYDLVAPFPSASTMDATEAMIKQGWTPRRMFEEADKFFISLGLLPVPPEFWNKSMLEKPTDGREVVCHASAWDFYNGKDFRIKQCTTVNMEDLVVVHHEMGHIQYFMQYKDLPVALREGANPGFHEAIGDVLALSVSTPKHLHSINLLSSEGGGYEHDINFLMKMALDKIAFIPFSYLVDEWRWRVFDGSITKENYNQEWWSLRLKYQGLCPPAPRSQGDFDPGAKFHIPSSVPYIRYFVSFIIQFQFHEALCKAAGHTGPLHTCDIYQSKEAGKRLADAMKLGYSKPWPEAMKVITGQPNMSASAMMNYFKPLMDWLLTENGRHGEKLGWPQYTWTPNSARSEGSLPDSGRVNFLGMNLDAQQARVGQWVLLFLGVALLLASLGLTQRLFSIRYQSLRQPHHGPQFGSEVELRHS
- Assay type: tissue-based, Lung
assay readout: IC50

Some solved cases for reference:
compound	study target	IC50
O=C(Nc1ccc(Br)cc1)c1cc(Br)cc(Br)c1O [TRIBROMSALAN]	Angiotensin-converting enzyme (Oryctolagus cuniculus, UniProt P12822)	Not Active
Oc1c(Cl)cc(Cl)c(Cl)c1Cc1c(O)c(Cl)cc(Cl)c1Cl [HEXACHLOROPHENE]	Angiotensin-converting enzyme (Oryctolagus cuniculus, UniProt P12822)	Not Active
C[C@@H]1O[C@@H](O[C@@H]2C=C3CC[C@@H]4[C@H](CC[C@]5(C)[C@@H](c6ccc(=O)oc6)CC[C@]45O)[C@@]3(C)CC2)[C@H](O)[C@H](O)[C@H]1O [PROSCILLARIDIN]	Angiotensin-converting enzyme (Oryctolagus cuniculus, UniProt P12822)	Not Active
CCN(CC)CC(=O)Nc1c(C)cccc1C [LIDOCAINE]	Angiotensin-converting enzyme (Oryctolagus cuniculus, UniProt P12822)	Not Active
O=C1Nc2ccc(Cl)cc2C(c2ccccc2Cl)=NC1O (stereo not drawn) [LORAZEPAM]	Angiotensin-converting enzyme (Oryctolagus cuniculus, UniProt P12822)	Not Active

// each listed compound needs a value for IC50
1. CN(C/C=C/C#CC(C)(C)C)Cc1cccc2ccccc12 [TERBINAFINE]
2. Cc1c(C)c2c(c(C)c1O)CCC(C)(CN1CCN(c3cc(N4CCCC4)nc(N4CCCC4)n3)CC1)O2 (stereo not drawn)
3. CN(C)CC[C@@H](c1ccc(Cl)cc1)c1ccccn1 [DEXCHLORPHENIRAMINE]
4. CN(C)CCOC(c1ccccc1)c1ccccc1 [DIPHENHYDRAMINE]
5. O=C(O)c1cn(-c2ccc(F)cc2)c2cc(N3CCNCC3)c(F)cc2c1=O [SARAFLOXACIN]

OUTPUT:
1. Not Active
2. Not Active
3. Not Active
4. Not Active
5. Not Active

// each listed compound needs a value for IC50
1. OC(CCCN1CCCCC1)(c1ccccc1)c1ccccc1 [DIPHENIDOL]
2. C#C[C@]1(OC(C)=O)CC[C@H]2[C@@H]3CCC4=C[C@@H](OC(C)=O)CC[C@@H]4[C@H]3CC[C@@]21C [ETHYNODIOL DIACETATE]
3. Nc1ccc2c3c(cccc13)C(=O)NC2=O
4. COc1ccc2c3c1O[C@H]1C[C@@H](O)C=C[C@@]31CCN(C)C2 [GALANTAMINE]
5. O=C(O)c1cccnc1Nc1cccc(C(F)(F)F)c1 [NIFLUMIC ACID]
6. CC[C@H]1CN2CCc3cc(OC)c(OC)cc3[C@@H]2C[C@@H]1C[C@H]1NCCc2cc(OC)c(OC)cc21 [EMETINE]
7. CCCCNc1ccc(C(=O)OCCN(C)C)cc1 [TETRACAINE]

OUTPUT:
Not Active
Not Active
Not Active
Not Active
Not Active
Not Active
Not Active

INPUT: Fill in the recorded IC50 for this compound, with Angiotensin-converting enzyme (Oryctolagus cuniculus, UniProt P12822) as test system: Fc1ccc(C(c2ccc(F)cc2)N2CCN(C/C=C/c3ccccc3)CC2)cc1 [FLUNARIZINE]
OUTPUT: Not Active
